Taken from PubChem BioAssay (NCI).

# Test system: SF-295 CNS
# PROTOCOL_NOTES: NCI-60 one-dose screen, 48 h
# MEASUREMENT_CONTEXT: 10 µM unless noted
This is part of a sample that, as a whole, favours compounds with a hit. Of some 83,000 tested, about 20% had one in any assay. Active and inactive are the calls of the source. How the source made its calls: active means growth percent below 10; inactive means the rest.
In this exercise, the only acceptable responses are active, inactive

[
  {
    "COMPOUND": "C=C(C)[C@@H]1CC[C@]2(C(=O)N3CCN(C)CC3)CC[C@]3(C)[C@H](CC[C@@H]4[C@@]5(C)C/C(=C/c6ccncc6)C(=O)C(C)(C)[C@@H]5CC[C@]43C)[C@@H]12",
    "LABEL_VALUE": "inactive"
  },
  {
    "COMPOUND": "COc1ccc(C(=O)CC#N)cc1",
    "LABEL_VALUE": "inactive"
  },
  {
    "COMPOUND": "CCc1ccc(CNc2ccc(N3CCOCC3)c(C(=O)O)c2)cc1",
    "LABEL_VALUE": "inactive"
  },
  {
    "COMPOUND": "CCCCOc1ccc(/C=N/Nc2cc(C)nc3ccc(Br)cc23)cc1",
    "LABEL_VALUE": "active"
  },
  {
    "COMPOUND": "COc1cccc(-c2cc(C(=O)Nc3ccc(/C=C/c4ccc(OC5CCN(C)CC5)cc4)cc3)ccc2OC)c1",
    "LABEL_VALUE": "active"
  }
]

GET /call?item= CC1(C)NCCC[C@]2(C)[C@H]3CC[C@@H]4[C@H]5[C@H](C(=O)/C=C/c6ccco6)CC[C@]5(CO)CC[C@@]4(C)[C@]3(C)CC[C@@H]12 returns the recorded outcome of this test.
inactive

GET /call?item= CCCC/C=N/NC(=S)NCc1ccccc1 returns the recorded outcome of this test.
inactive

GET /call?item= COc1ccc(/C=C2\Oc3cc(OCCCN4CCCCC4)ccc3C2=O)cc1OC returns the recorded outcome of this test.
inactive
